test system: BDF1 mice, P388 leukemia ip, median survival T/C; experiment: NCI In Vivo Anticancer Drug Screen. Data for tumor model P388 Leukemia (intraperitoneal) in B6D2F1 (BDF1) mice; conditions: endpoint: median survival time; dose: 50.0 mg/kg/injection; schedule: Q04DX003 (ip); vehicle: saline with Tween-80
Inconclusive results and toxic doses are left out. Rule for the calls: active = survival T/C of 150% or more; inactive = T/C below 125% in these data.
Outcome codes: yes (active), no (inactive)

INSERT INTO results (molecule, class_assignment) VALUES
  ('COc1ccccc1NC(=O)Nc1ccc(C(=O)OCC(C)C)cc1', 'no'),
  ('N#CC1(Nc2ccccc2)CCCCC1', 'no'),
  ('O=C(CN1CC1)NCCCCCCCCNC(=O)CN1CC1', 'yes'),
  ('CC1CNC2C(C)C3C(CC4C5CCC6CC(N)CCC6(C)C5CCC43C)OC2(O)C1 (stereo not given)', 'no'),
  ('Nc1c2ccccc2cc2ccccc12', 'no');

###

tested on: BDF1 mice, P388 leukemia ip, median survival T/C; assay: NCI In Vivo Anticancer Drug Screen. Data for tumor model P388 Leukemia (intraperitoneal) in B6D2F1 (BDF1) mice; settings: endpoint: median survival time; dose: 25.0 mg/kg/injection; schedule: Q04DX003 (ip); vehicle: saline; higher = longer survival
Inconclusive results and toxic doses are left out.
Entries annotated with measured T/C
RECORDED METRIC: T/C

INSERT INTO assay_data (molecule, measurement) VALUES
  ('CCOC(=O)C1(C)CCCC1=O (stereo not given)', '95 % of control'),
  ('c1ccc(C[n+]2cccc3ccccc32)cc1', '104 % of control'),
  ('CCOC(=O)C(OCc1ccccc1)(C(=O)OCC)C(C)C', '115 % of control'),
  ('NCCc1cnc2ccccc2n1', '100 % of control'),
  ('O=C1NCCN1c1ccccn1', '90 % of control'),
  ('c1ccc2c[n+]3cc4ccccc4cc3cc2c1', '100 % of control'),
  ('Cc1[nH]c(=O)[nH]c(=O)c1/C=C/C(=O)NC(CO)CC(C)C (stereo not given)', '107 % of control'),
  ('CN(C)CCCc1c2ccccc2nc2ccc(Cl)cc12', '109 % of control'),
  ('CCCCNC(C)(C)CO', '100 % of control'),
  ('CCn1cnc2c(SC)ncnc21', '86 % of control'),
  ('NCC=C1C2CC3CC(C2)CC1C3', '100 % of control'),
  ('O=C1C=CC(=O)O1 (tested in a mixture with another compound)', '102 % of control'),
  ('N#Cc1ccccc1NN=Nc1ccccc1-c1nc(N)nc(N)n1', '112 % of control'),
  ('[Na+]', '95 % of control'),
  ('N[C@H](C(=O)O)[C@@H]1CC(Cl)=NO1', '220 % of control'),
  ('CSc1nc2nc(Cl)c(Cl)nc2[nH]1', '99 % of control'),
  ('Cc1c2ccccc2c(CSC(=N)N)c2ccccc12', '180 % of control'),
  ('COc1ccc(C(Br)C(Br)C(=O)c2ccc3c(c2)OCO3)cc1OC (stereo not given)', '104 % of control'),
  ('COc1ccc2c3c1OC1C(Oc4nnnn4-c4ccccc4)C=CC4C(C2)N(C)CCC341 (stereo not given)', '113 % of control'),
  ('Cc1nc(NN)c(C(N)=O)nc1C', '106 % of control');

Origin of the recorded values: PubChem BioAssay AID328
